Please go through the items and note down their Absorbance water.
- Test Description: One-photon absorption and emission spectra in multilamellar lipid vesicles, water and ethanol
- Assay type: physicochemical
- Test Parameters: water
Please reply with the bare figure in nm and do not write the unit itself.

Find the recorded Absorbance water belonging to "CCN(CC)c1ccc2cc(/C=C/C=C/c3cc[n+](CCC[N+](C)(C)C)c4ccccc34)ccc2c1.[Br-].[Br-]" and report it.
490

Same read-out for "CCN(CC)c1ccc(-c2ccc(/C=C/c3cc[n+](CCC[N+](CC)(CC)CC)cc3)s2)s1" ?
539

Same read-out for "CN(C)c1ccc(/C=C/c2ccc(/C=C/c3cc[n+](CCC[N+](C)(C)C)c4ccccc34)o2)cc1" ?
554

Same read-out for CCCCN(CCCC)c1ccc2cc(/C=C/C=C/c3cc[n+](CCC[N+](C)(C)C)c4ccccc34)ccc2c1.[Br-].[Br-] [di-4-ANBDQPQ, Di-4-ANBDQPQ, reference compound] ?
552

Same read-out for "CCCCN(CCCC)c1ccc(-c2ccc(/C=C/c3cc[n+](CCC[N+](CC)(CC)CC)cc3)s2)s1" ?
555

Same read-out for "CCN(CC)c1ccc(-c2ccc(-c3ccc(/C=C/c4cc[n+](CCC[N+](CC)(CC)CC)cc4)s3)s2)s1" ?
508

Same read-out for "CCCN(CCC)c1ccc(-c2ccc(/C=C/c3cc[n+](CCC[N+](CC)(CC)CC)cc3)s2)s1" ?
567
